Origin of measurements: the supplement of paper PMC6555819

- Test system: LXRa homodimer (NR concentration 270 nM)
- Experiment Notes: PBM binding z-score (relative to random genomic background probes); higher = stronger binding; sequences stand for … in GC…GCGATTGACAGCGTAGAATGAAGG
Assay Endpoint: PBM binding z-score
A bare number is all that is needed in reply.

Record "CATACAGGGTCGGCTAGGCCAGAGTAGGGACGGC" . Reported PBM binding z-score: -0.58

Record "CAAACAAGGTCACAGAGGTCAAAGTCCGTGCGTA" . Reported PBM binding z-score: 8.49

Record "TCTGCTAGGTCAACGTTGGTCAGCTAATCTGCTA" . Reported PBM binding z-score: -0.139

Record "GCTTACAGGTCAAAGGTTATAGCATGAATAGAAT" . Reported PBM binding z-score: 2.63

Record "CAAACAAGGTCAAAGGTCAAAGTCGAGCCAACCA" . Reported PBM binding z-score: 6.4

Record "AGTCAAACTTCAGGACGAGGTAACGTAAAGCACG" . Reported PBM binding z-score: -0.0988

Record "CCAGACAGGTGAGAAGGTAACTCAGCCTCGATTA" . Reported PBM binding z-score: 0.0228

Record "CCTGCTAGGTCAAAGGTCAGCTAAAGCAGCTCGC" . Reported PBM binding z-score: 2.52

Record "CGAACTAGGTCATTGACAGGACAATGAATAGTAA" . Reported PBM binding z-score: 0.605

Record "AGAATGAGGTTACTAAAGATCAGGGAAACGCTTG" . Reported PBM binding z-score: 0.111

Record "GATATAGGGTCAGCTAGAGGCCAGAGTATGGAAA" . Reported PBM binding z-score: 0.0568

Record "CGTCCAAGGTCATATGAGGTCAGTGAAGACAGAT" . Reported PBM binding z-score: 6.17
